# MEASUREMENT DESCRIPTION: Acute toxicity studies in mice
# SETTINGS: mouse, in vivo, ip
READOUT TYPE: LD50 (mg/kg)
Give bare numbers, in mg/kg.

State the recorded LD50 for this entry: O=C1CCC(NC(=O)Cc2ccccc2)C(=O)N1 (stereo not shown) [Antineoplaston A10]
10300
